- Assayed Target: Kappa-type opioid receptor (Homo sapiens, UniProt P41145)
- Sequence (P41145 whole entry): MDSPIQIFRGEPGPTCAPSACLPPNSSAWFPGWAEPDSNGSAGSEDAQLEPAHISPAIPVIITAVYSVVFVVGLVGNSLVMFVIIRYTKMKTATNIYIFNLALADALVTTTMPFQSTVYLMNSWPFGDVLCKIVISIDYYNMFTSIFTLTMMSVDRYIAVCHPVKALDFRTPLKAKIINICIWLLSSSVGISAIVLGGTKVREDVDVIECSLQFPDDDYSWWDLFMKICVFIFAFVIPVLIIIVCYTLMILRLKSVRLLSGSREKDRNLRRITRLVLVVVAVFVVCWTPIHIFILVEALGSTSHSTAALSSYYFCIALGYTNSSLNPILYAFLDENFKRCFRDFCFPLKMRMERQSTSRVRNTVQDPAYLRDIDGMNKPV
- Experiment Notes: Agonist activity at human kappa opioid receptor expressed in CHO cells assessed as [35S]GTPgammaS binding by scintillation counting relative to control
- Type: functional, cell-based
Endpoint: Emax (%)
Kindly answer with a numeric value in %, unit omitted.

- Mol: "Nc1nc2cc3c(cc2s1)C[C@@H]1[C@@H]2CCCC[C@]32CCN1C[C@@H]1CCCO1"
  Emax, %: 190
- Mol: "CNc1nc2cc3c(cc2s1)C[C@@H]1[C@@H]2CCCC[C@]32CCN1CC1CC1"
  Emax, %: 82
- Mol: "CCNc1nc2cc3c(cc2s1)C[C@@H]1[C@@H]2CCCC[C@]32CCN1CC1CC1"
  Emax, %: 190
- Mol: "FC(F)(F)CNc1nc2cc3c(cc2s1)C[C@@H]1[C@@H]2CCCC[C@]32CCN1CC1CC1"
  Emax, %: 120
- Mol: "CN(C)c1nc2cc3c(cc2s1)C[C@@H]1[C@@H]2CCCC[C@]32CCN1CC1CC1"
  Emax, %: 110
- Mol: "CCNc1nc2cc3c(cc2s1)C[C@@H]1[C@@H]2CCCC[C@]32CCN1CCCF"
  Emax, %: 150
- Mol: "CNc1nc2cc3c(cc2s1)C[C@@H]1[C@@H]2CCCC[C@]32CCN1CCCF"
  Emax, %: 170

# input for lookup
Emax of "Nc1nc2cc3c(cc2s1)C[C@@H]1[C@@H]2CCCC[C@]32CCN1CCCF" on Kappa-type opioid receptor (Homo sapiens, UniProt P41145)? 100

====

- Assayed Target: Delta-type opioid receptor (Homo sapiens, UniProt P41143)
- Sequence (P41143 whole entry): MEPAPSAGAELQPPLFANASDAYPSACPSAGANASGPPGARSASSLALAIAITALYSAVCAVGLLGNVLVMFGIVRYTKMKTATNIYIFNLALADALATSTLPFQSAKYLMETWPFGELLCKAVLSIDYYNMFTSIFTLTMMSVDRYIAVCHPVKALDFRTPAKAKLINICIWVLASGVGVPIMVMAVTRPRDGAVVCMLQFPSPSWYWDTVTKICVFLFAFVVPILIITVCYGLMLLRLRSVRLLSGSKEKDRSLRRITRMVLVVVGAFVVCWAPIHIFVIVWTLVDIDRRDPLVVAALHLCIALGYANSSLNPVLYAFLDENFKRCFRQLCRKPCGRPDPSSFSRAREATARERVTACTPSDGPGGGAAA
- Experiment Notes: Displacement of [3H]Naltrindole from human delta opioid receptor expressed in CHO cells after 3 hrs by scintillation counting
Endpoint: log10(Ki) (log10 of the value in nM)
Note: values are log10 of Ki expressed in nM.

In the examples that follow, each entry is paired with its recorded log10(Ki).
- Mol: "c1ccc(Nc2nc3cc4c(cc3s2)C[C@@H]2[C@@H]3CCCC[C@]43CCN2CC2CC2)cc1"
  Assayed Target: "Delta-type opioid receptor (Homo sapiens, UniProt P41143)"
  log10(Ki): 2.15
- Mol: "CCNc1nc2cc3c(cc2s1)C[C@@H]1[C@@H]2CCCC[C@]32CCN1CC1CC1"
  Assayed Target: "Delta-type opioid receptor (Homo sapiens, UniProt P41143)"
  log10(Ki): 1.63
- Mol: "CCNc1nc2cc3c(cc2s1)C[C@@H]1[C@@H]2CCCC[C@]32CCN1CCCF"
  Assayed Target: "Delta-type opioid receptor (Homo sapiens, UniProt P41143)"
  log10(Ki): 1.88

Param item = "CNc1nc2cc3c(cc2s1)C[C@@H]1[C@@H]2CCCC[C@]32CCN1CCCF" ; retrieve measured log10(Ki). 1.70

Param item = "c1ccc(CNc2nc3cc4c(cc3s2)C[C@@H]2[C@@H]3CCCC[C@]43CCN2CC2CC2)cc1" ; retrieve measured log10(Ki). 1.61

Param item = "CC(=O)Nc1nc2cc3c(cc2s1)C[C@@H]1[C@@H]2CCCC[C@]32CCN1CC1CC1" ; retrieve measured log10(Ki). 2.88

====

Let's look at some compounds and their measured EC50.
- Assayed Target: Mu-type opioid receptor (Homo sapiens, UniProt P35372)
- Sequence (P35372 whole entry): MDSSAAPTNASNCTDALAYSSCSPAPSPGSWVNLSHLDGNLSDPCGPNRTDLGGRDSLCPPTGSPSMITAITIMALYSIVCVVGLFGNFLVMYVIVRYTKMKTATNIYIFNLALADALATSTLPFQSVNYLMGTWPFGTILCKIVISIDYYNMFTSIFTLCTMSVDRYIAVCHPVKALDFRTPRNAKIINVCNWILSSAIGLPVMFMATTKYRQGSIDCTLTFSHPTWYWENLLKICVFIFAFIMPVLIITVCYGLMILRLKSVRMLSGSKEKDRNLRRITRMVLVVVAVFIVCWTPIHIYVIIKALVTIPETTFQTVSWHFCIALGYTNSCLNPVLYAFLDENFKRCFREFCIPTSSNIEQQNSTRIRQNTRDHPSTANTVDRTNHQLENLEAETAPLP
- Experiment Notes: Agonist activity at human mu opioid receptor expressed in CHO cells assessed as [35S]GTPgammaS binding by scintillation counting
Kindly answer with a numeric value in nM, unit omitted.

In the examples that follow, each entry is paired with its recorded EC50.
- Mol: "CCNc1nc2cc3c(cc2s1)C[C@@H]1[C@@H]2CCCC[C@]32CCN1CCCF"
  EC50 [nM]: 240
- Mol: "Nc1nc2cc3c(cc2s1)C[C@@H]1[C@@H]2CCCC[C@]32CCN1C[C@@H]1CCCO1"
  EC50 [nM]: 71
- Mol: "CNc1nc2cc3c(cc2s1)C[C@@H]1[C@@H]2CCCC[C@]32CCN1CC1CC1"
  EC50 [nM]: 47
- Mol: "CN(C)c1nc2cc3c(cc2s1)C[C@@H]1[C@@H]2CCCC[C@]32CCN1CC1CC1"
  EC50 [nM]: 140

# input for lookup
EC50 of "Nc1nc2cc3c(cc2s1)C[C@@H]1[C@@H]2CCCC[C@]32CCN1CCCF" on Mu-type opioid receptor (Homo sapiens, UniProt P35372)? 130
